- Method summary: Delivery vehicle size and polydispersity by dynamic light scattering
- Format: physicochemical
- Experimental parameters: DLS in PBS; peptoid:DSPC:Cholesterol:DMG-PEG2000 weight ratio 20:1.79:7.16:1.84, mRNA
Starred links: 1 amine or outer side, 2 acyl side, 3 side chain; linkers in the order of their positions; H or OH if unused. Non-standard residues stand in square brackets, D forms with d. Residues, ends and D or L forms follow the SMILES beside them. *: point of attachment. Gly(N-(3-decanoyloxypropyl)) = CCCCCCCCCC(=O)OCCCNCC(=O)O; N(3-lauroyloxypropyl)Gly = CCCCCCCCCCCC(=O)OCCCNCC(=O)O; Gly(N-(CH2)3O-octanoyl) = CCCCCCCC(=O)OCCCNCC(=O)O; N(3-imidazol-1-ylpropyl)Gly = O=C(O)CNCCCn1ccnc1; Gly(N-3-morpholinopropyl) = O=C(O)CNCCCN1CCOCC1; N(2-ethylhexyl)Gly = CCCCC(CC)CNCC(=O)O; X1 = CCCCC(CC)CSSCCN(CC(=O)[*:2])[*:1]; X3 = CCCCCCCCSSCCN(CC(=O)[*:2])[*:1]; N(CH(CH2OH)2)Gly = O=C(O)CNC(CO)CO; N(octyl)Gly = CCCCCCCCNCC(=O)O; NDecylGly = CCCCCCCCCCNCC(=O)O; NHexGly = CCCCCCNCC(=O)O; For = O=C*
Assay readout: Particle Size

Known Particle Size results, listed for orientation:
>>> result("CCCCCCCCSSCCN(CC(=O)N(CCCN1CCOCC1)CC(=O)N(CCSSCCCCCCCC)CC(=O)N(CCCOC(=O)CCCCCCC)CC(=O)N(CCCOC(=O)CCCCCCC)CC(N)=O)C(=O)CN(CCCOC(=O)CCCCCCC)C(=O)CN(C=O)CCCOC(=O)CCCCCCC [Compound 134] (For-[Gly(N-(CH2)3O-octanoyl)][Gly(N-(CH2)3O-octanoyl)][X3][Gly(N-3-morpholinopropyl)][X3][Gly(N-(CH2)3O-octanoyl)][Gly(N-(CH2)3O-octanoyl)]-NH2)")
"73.8 nm"
>>> result("CCCCCCCCCCCC(=O)OCCCN(CC(=O)N(CC(=O)N(CCCCCC)CC(=O)N(CCCOC(=O)CCCCCCCCCCC)CC(=O)N(CC(=O)N(CCCCCC)CC(N)=O)CC(CC)CCCC)CC(CC)CCCC)C(=O)CNCCCn1ccnc1 (centres unmarked) [Compound 72] (H-[N(3-imidazol-1-ylpropyl)Gly][N(3-lauroyloxypropyl)Gly][N(2-ethylhexyl)Gly][NHexGly][N(3-lauroyloxypropyl)Gly][N(2-ethylhexyl)Gly][NHexGly]-NH2)")
"106.8 nm"
>>> result("CCCCCCCCCCN(C=O)CC(=O)N(CCCOC(=O)CCCCCCC)CC(=O)N(CC(=O)N(CCCn1ccnc1)CC(=O)N(CC(=O)N(CCCOC(=O)CCCCCCC)CC(=O)N(CCCCCCCCCC)CC(N)=O)CC(CC)CCCC)CC(CC)CCCC (centres unmarked) [Compound 114] (For-[NDecylGly][Gly(N-(CH2)3O-octanoyl)][N(2-ethylhexyl)Gly][N(3-imidazol-1-ylpropyl)Gly][N(2-ethylhexyl)Gly][Gly(N-(CH2)3O-octanoyl)][NDecylGly]-NH2)")
"119.7 nm"
>>> result("CCCCCCCC(=O)OCCCN(C=O)CC(=O)N(CCCOC(=O)CCCCCCC)CC(=O)N(CCc1ccccc1)CC(=O)N(CC(=O)N(CCCN1CCOCC1)CC(=O)N(CCCOC(=O)CCCCCCC)CC(=O)N(CCc1ccccc1)CC(=O)N(CCCOC(=O)CCCCCCC)CC(=O)N(CC(N)=O)CC(CC)CCCC)CC(CC)CCCC (centres unmarked) [Compound 125]")
"86.2 nm"

Req: What measured Particle Size goes with CCCCCCCCCC(=O)OCCCN(CC(=O)N(CCSSCC(CC)CCCC)CC(N)=O)C(=O)CN(CCCCCCCC)C(=O)CN(CCSSCC(CC)CCCC)C(=O)CN(CCCOC(=O)CCCCCCCCC)C(=O)CN(CCCCCCCC)C(=O)CNC(CO)CO (centres unmarked) [Compound 129] (H-[N(CH(CH2OH)2)Gly][N(octyl)Gly][Gly(N-(3-decanoyloxypropyl))][X1][N(octyl)Gly][Gly(N-(3-decanoyloxypropyl))][X1]-NH2) ?
Resp: 61.2 nm
